Biological target: CYP3A4 (Homo sapiens (Human))
Sequence (P08684 whole entry): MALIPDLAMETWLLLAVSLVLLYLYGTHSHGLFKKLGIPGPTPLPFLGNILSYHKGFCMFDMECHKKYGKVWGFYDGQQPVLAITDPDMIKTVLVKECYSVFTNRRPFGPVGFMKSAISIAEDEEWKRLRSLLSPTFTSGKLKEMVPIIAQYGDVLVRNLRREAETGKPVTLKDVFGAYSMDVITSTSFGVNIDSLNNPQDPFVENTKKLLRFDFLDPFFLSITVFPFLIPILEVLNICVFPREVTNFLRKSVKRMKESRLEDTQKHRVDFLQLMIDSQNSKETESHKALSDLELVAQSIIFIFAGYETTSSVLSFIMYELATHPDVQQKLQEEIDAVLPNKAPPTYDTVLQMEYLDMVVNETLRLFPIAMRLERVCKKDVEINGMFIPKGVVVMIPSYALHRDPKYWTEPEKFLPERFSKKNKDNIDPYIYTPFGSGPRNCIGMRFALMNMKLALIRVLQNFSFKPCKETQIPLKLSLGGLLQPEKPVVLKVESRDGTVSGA
Assay: 3A4 subtype of CYP450 enzyme time-dependent inhibition assay (IC50 shift)
Format: in vitro ADME
Details: probe testosterone, 50 µM; 30 min pre-incubation with vs without NADPH, testosterone substrate, human liver microsomes
quantity name: IC50 shift at 10 min

Examples with their reported IC50 shift at 10 min follow.
molecule	measured
CCN(c1nc(-c2ccc(F)cc2)c(C#N)s1)c1c2nc(-c3cnc(N4CC[C@@H](O)C4)nc3)ccc2nn1CC [Example 28]	1.28
CCc1nc2ccc(-c3cnc(CC(=O)N4CC(O)C4)cn3)cn2c1N(C)c1nc(-c2ccc(F)cc2)c(C#N)s1 [Example 4]	1.04

A. CCN(c1nc(-c2ccc(F)cc2)c(C#N)s1)c1c2nc(-c3cnc(N4CCC(O)CC4)nc3)ccc2nn1CC [Example 26]
B. CCN(c1nc(-c2ccc(F)cc2)c(C#N)s1)c1c2nc(-c3cnc(N4CC[C@H](O)C4)nc3)ccc2nn1CC [Example 27]
Could you determine which record has the numerically smaller IC50 shift at 10 min? Candidates: A and B Write the label of whichever entry you select.
B
(B: 0.63, A: 1.09)
